# Target Or Test System: dopamine D3 receptor (rD3) (Rattus norvegicus, UniProt P19020)
# Sequence (P19020 whole entry): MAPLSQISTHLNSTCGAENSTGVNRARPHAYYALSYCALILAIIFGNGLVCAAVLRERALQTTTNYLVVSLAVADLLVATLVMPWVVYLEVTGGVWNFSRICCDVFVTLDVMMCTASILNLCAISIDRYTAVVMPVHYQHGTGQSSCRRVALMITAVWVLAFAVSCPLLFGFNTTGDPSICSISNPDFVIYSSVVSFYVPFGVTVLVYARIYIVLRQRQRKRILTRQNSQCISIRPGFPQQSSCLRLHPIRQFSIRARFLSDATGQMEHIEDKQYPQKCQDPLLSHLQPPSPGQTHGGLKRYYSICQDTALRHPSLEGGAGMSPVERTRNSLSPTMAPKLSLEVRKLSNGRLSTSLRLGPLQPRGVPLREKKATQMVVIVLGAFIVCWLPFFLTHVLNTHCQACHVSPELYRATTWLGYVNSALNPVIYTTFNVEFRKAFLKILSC
Measurement Type: pKd
Field pKd (float): negative decimal logarithm of the concentration in molar.

Problem: Which pKd value belongs to CCN1CCC[C@H]1CNC(=O)c1c(O)c(Cl)cc(Cl)c1OC [[^3H]raclopride] ?
Solution: 7.77

###

# Target Or Test System: dopamine D3 receptor (Macaca mulatta, UniProt F6U709)
# Sequence (F6U709 1-400): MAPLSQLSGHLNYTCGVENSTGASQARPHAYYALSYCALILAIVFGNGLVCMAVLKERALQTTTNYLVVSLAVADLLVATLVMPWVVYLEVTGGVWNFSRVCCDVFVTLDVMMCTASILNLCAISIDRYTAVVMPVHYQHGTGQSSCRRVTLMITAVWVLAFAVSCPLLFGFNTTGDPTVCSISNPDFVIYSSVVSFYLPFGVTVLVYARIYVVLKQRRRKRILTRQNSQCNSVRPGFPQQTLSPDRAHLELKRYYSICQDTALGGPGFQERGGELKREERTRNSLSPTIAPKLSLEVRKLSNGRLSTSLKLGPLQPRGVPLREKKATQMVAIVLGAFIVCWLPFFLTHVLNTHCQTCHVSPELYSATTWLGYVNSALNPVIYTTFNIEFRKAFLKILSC
Measurement Type: Kd (nM)
Please state the figure in nM; there is no need to write the unit.

Problem: Which Kd value belongs to COc1ccccc1N1CCN(CCCCNC(=O)c2ccc(N(C)C)cc2)CC1 [WC-10] ?
Solution: 1.1
